Target: Gal3S(b1-4)Glc
Assay: glycan array binding signal (z-score within array); higher = stronger binding
Settings: glycan notation: IUPAC condensed, linker removed
This is one part of a sample in which the strongest signals are shown more often than they occur.
observed property: glycan array binding signal (z-score)

binder: Pwp5 ND (Candida glabrata) (protein) MGSSHHHHHHSSGLVPRGSHMASANPVPLTNVCYFPEEYPRQAGFRAITAGLASTILQGSVDELLNYSGLSSLTTQQTTTTTPNFQLPTLPLPTNVYGLTVVPLYLLVQLQGYFVPPVSGQYTFSLENTNDAAIIFFGNPSAFPCGDLSAWPQASADDITVTDGTFPSRTLFLKAGVAYPMRISYYNSLGSGNLAVSFTDPGGTKRTNWNGYIWRYNSCSTCTYT
numeric value: -0.405

binder: Ecp6 (Cladosporium fulvum), B3VBK9 (protein) MQSMILFAAALMGAAVNGFVLPRTDDPDCETKATDCGSTSNIKYTVVKGDTLTSIAKKFKSGICNIVSVNKLANPNLIELGATLIIPENCSNPDNKSCVSTPAEPTETCVPGLPGSYTIVSGDTLTNISQDFNITLDSLIAANTQIENPDAIDVGQIITVPVCPSSQCEAVGTYNIVAGDLFVDLAATYHTTIGQIKALNNNVNPSKLKVGQQIILPQDCKNVTTAVA
numeric value: -0.098

binder: Eosinophil-derived neurotoxin (EDN) (Homo sapiens), P10153 (protein) MVPKLFTSQICLLLLLGLLAVEGSLHVKPPQFTWAQWFETQHINMTSQQCTNAMQVINNYQRRCKNQNTFLLTTFANVVNVCGNPNMTCPSNKTRKNCHHSGSQVPLIHCNLTTPSPQNISNCRYAQTPANMFYIVACDNRDQRRDPPQYPVVPVHLDRII
numeric value: -0.269

The reported numbers originate from the supplement of paper PMC8728848.
